Reported half-life values follow for various molecules
experiment: In vitro metabolic stability in mouse liver microsomes; conditions: liver microsomes, apparent t1/2 in mouse liver microsomes, mouse liver microsomes, 37° C.
Where a SMILES comes first, the peptide text is derived from it. [ ]: non-standard residue; d: D form. dNMeA = CN[C@H](C)C(=O)O; Sar = CNCC(=O)O
// note: answer is a bare numeric in min

1. CN1CC(=O)N[C@@H](Cc2ccccc2)C(=O)N[C@H](Cc2ccccc2)C(=O)N2CCC[C@H]2C1=O [cyclo[D-Phe-Pro-Sar-Phe]] (cyclo(F[dF]P[Sar])) = 60

Query molecule follows.
// sample C[C@@H]1C(=O)N[C@@H](Cc2ccccc2)C(=O)N[C@H](Cc2ccccc2)C(=O)N2CCC[C@H]2C(=O)N1C [cyclo[D-Phe-Pro-D-NMe-Ala-Phe]] (cyclo(F[dF]P[dNMeA])) , its half-life was 12
